Target: T1, mouse VTCN1 protein (Mus musculus, UniProt Q7TSP5)
T1 construct: His
T1 sequence (Q7TSP5 25-257): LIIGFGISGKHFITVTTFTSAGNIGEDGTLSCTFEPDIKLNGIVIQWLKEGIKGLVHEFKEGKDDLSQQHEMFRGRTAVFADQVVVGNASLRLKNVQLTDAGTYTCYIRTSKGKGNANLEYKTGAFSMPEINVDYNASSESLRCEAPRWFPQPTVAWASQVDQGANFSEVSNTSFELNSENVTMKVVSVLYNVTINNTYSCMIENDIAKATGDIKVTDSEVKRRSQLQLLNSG
Assay: Affinity by OCTET, mouse VTCN1
Assay type: binding
Conditions: Table 12
quantity: mouse k(on)
Form field (numeric): enter value without unit.

response.value for 14D6_60B5: fully human VTCN1 antibody; VH SEQ ID NO: 278, VL SEQ ID NO: 281 (antibody, V domains shown) VH: QVQLVHSGAEVKRPGSSVKVSCKASGGTFSSYAISWVRQAPGQGLEWMGGIIPIFGIANYAQKFQGRVTIIADKSTRTAYMELSSLRSEDTAVYYCARGGPYFDYWGQGILVTVSS VL: EIVMTQSPATLSVSPGERATLSCRASQSVSSNLAWYQQKPGQAPRLLIYGASTRATGIPARFSGSGSGTEFTLTISSLQSEDFAVYYCQQYNKWPFTFGPGTKVDIK (field: mouse k(on)) = 1.15E+05
